system: PBMC-derived induced microglia-like cells (piMGLC); test: synaptosome phagocytic index relative to DMSO control (fraction of DMSO); higher = more phagocytosis; conditions: concentration: 10 uM (2 uM for compounds listed in Table S2); pretreatment time: 24 h; assay time: 3 h
Structures can show the parent of a compound that is named as a salt.
For each entry below, report its synaptosome phagocytic index value.
Note: the reply should be a number with no unit written.

The compound CCC(C)C(N)C(=O)NCCN1CCOCC1 (stereo not given) [LM11A-31_(dihydrochloride)] , tested on PBMC-derived induced microglia-like cells (piMGLC), showed synaptosome phagocytic index of 0.844

The compound NC(=O)OCC(COC(N)=O)c1ccccc1 [Felbamate] , tested on PBMC-derived induced microglia-like cells (piMGLC), showed synaptosome phagocytic index of 0.618

The compound CCN(CC)C(=O)C1(c2ccccc2)CC1CN (stereo not given) [Milnacipran_(hydrochloride)] , tested on PBMC-derived induced microglia-like cells (piMGLC), showed synaptosome phagocytic index of 1.35

The compound CN1CCN(C2=Nc3cc(Cl)ccc3Nc3ccccc32)CC1 [Clozapine] , tested on PBMC-derived induced microglia-like cells (piMGLC), showed synaptosome phagocytic index of 0.697

The compound CS(=O)(=O)CCNCc1ccc(-c2ccc3ncnc(Nc4ccc(OCc5cccc(F)c5)c(Cl)c4)c3c2)o1 [Lapatinib_(ditosylate)] , tested on PBMC-derived induced microglia-like cells (piMGLC), showed synaptosome phagocytic index of 0.126

* * *

test system: PBMC-derived induced microglia-like cells (piMGLC); assay: synaptosome phagocytic index relative to DMSO control (fraction of DMSO); higher = more phagocytosis; settings: concentration: 10 uM (2 uM for compounds listed in Table S2); pretreatment time: 24 h; assay time: 3 h
Structures can show the parent of a compound that is named as a salt.
Quantity kind: synaptosome phagocytic index
Note: the reply should be a number with no unit written.

For record `CC(C)(Sc1cc(C(C)(C)C)c(O)c(C(C)(C)C)c1)Sc1cc(C(C)(C)C)c(O)c(C(C)(C)C)c1` the listed synaptosome phagocytic index is 0.859

For record `Cc1cnc(-c2cc(N3CCN(C(=O)CCS(C)(=O)=O)CC3)ncc2Cl)c(C)c1` the listed synaptosome phagocytic index is 0.665

For record `Cn1cnc2c(F)c(Nc3ccc(Br)cc3Cl)c(C(=O)NOCCO)cc21` the listed synaptosome phagocytic index is 0.811

For record OC(CCN1CCCCC1)(c1ccccc1)C1CCCCC1 (configuration not stated) [Trihexyphenidyl_(hydrochloride)] the listed synaptosome phagocytic index is 1.24

For record CN1C2CCCC1CC(NC(=O)c1nn(C)c3ccccc13)C2 (configuration not stated) [Granisetron_(Hydrochloride)] the listed synaptosome phagocytic index is 0.891

For record C#CCN[C@@H]1CCc2ccccc21 [Rasagiline_(mesylate)] the listed synaptosome phagocytic index is 0.965

For record `CC(=O)Oc1ccccc1C(=O)O` the listed synaptosome phagocytic index is 0.579

For record `CC(C)(O/N=C(\C(=O)N[C@@H]1C(=O)N2C(C(=O)[O-])=C(C[n+]3ccccc3)CS[C@H]12)c1csc(N)n1)C(=O)O` the listed synaptosome phagocytic index is 1.05

For record `Fc1ccc(-c2ccc3c(c2)[nH]c2ccncc23)cn1` the listed synaptosome phagocytic index is 0.711

For record `COc1cc2ncnc(Nc3ccc(F)c(Cl)c3)c2cc1NC(=O)/C=C/CN1CCCCC1` the listed synaptosome phagocytic index is 1.26

For record CCN1CCN(C(=O)N[C@@H](C(=O)N[C@@H]2C(=O)N3[C@@H]2SC(C)(C)[C@@H]3C(=O)O)c2ccccc2)C(=O)C1=O [Piperacillin_(sodium)] the listed synaptosome phagocytic index is 1.13

For record `C=CC(=O)Nc1cc(Nc2nccc(-n3cc(CN(C)C)c(-c4ccccc4)n3)n2)c(OC)cc1N1CCOCC1` the listed synaptosome phagocytic index is 0.0589
